test system: Mus musculus; experiment: Antihyperglycemic activity in diabetic C57BL/KsJ db/db mouse model assessed as reduction in hyperglycemia at 25 mg/kg, po qd for 10 days; format: functional; design: scale not given: the % may be the effect or the level left
Quick reference for Activity among some molecules
Give a bare numeral; the unit % is implied.

CC(C)(C)NC[C@H](O)COc1ccc2c(=O)cc(-c3cc(OCc4ccccc4)cc(OCc4ccccc4)c3)oc2c1 : 55.4

molecule CC(C)(C)NCC(O)COc1ccc2c(=O)cc(-c3cc(OCc4ccccc4)cc(OCc4ccccc4)c3)oc2c1 (racemic) , Activity observed: 38.3

// recorded Activity for CC(C)NCC(O)COc1ccc2c(=O)cc(-c3cc(O)cc(O)c3)oc2c1 (racemic) : 39.5

// sample "CC(C)(C)NC[C@@H](O)COc1ccc2c(=O)cc(-c3cc(OCc4ccccc4)cc(OCc4ccccc4)c3)oc2c1" , its Activity was 34.1

// recorded Activity for CN(CCOc1ccc(CC2SC(=O)NC2=O)cc1)c1ccccn1 (configuration not stated) : 54.3

response.value for "CC(C)NC[C@@H](O)COc1ccc2c(=O)cc(-c3cc(O)cc(O)c3)oc2c1" (field: Activity) = 28.2

The molecule "CC(C)NC[C@H](O)COc1ccc2c(=O)cc(-c3cc(O)cc(O)c3)oc2c1" showed Activity equal to 45.6

====

Listing of entries alongside the reported Activity.
tested on: Syrian golden hamster; test: Antidyslipidemic activity in high fructose and high-fat diet fed dyslipidemic Syrian golden hamster model assessed as reduction in body weight at 25 mg/kg/day for 7 days; format: functional, Mesocricetus auratus; parameters: scale not given: the % may be the effect or the level left
Provide the reading as a plain figure in %.

Here are 3 compounds together with their reported answers.
CC(C)(C)NC[C@@H](O)COc1ccc2c(=O)cc(-c3cc(OCc4ccccc4)cc(OCc4ccccc4)c3)oc2c1 : 3.73
CC(C)(C)NCC(O)COc1ccc2c(=O)cc(-c3cc(OCc4ccccc4)cc(OCc4ccccc4)c3)oc2c1 (racemic) : 8.89
CC(C)OC(=O)C(C)(C)Oc1ccc(C(=O)c2ccc(Cl)cc2)cc1 [FENOFIBRATE] : 6.78

Please find the next compound below.
The compound "CC(C)(C)NC[C@H](O)COc1ccc2c(=O)cc(-c3cc(OCc4ccccc4)cc(OCc4ccccc4)c3)oc2c1" showed Activity equal to 14.3

====

test system: Rattus norvegicus; test: Antihyperlipidemic activity in Triton-induced dyslipidemic Wistar rat model assessed as reduction in triglyceride level at 100 mg/kg, po; format: functional; set-up: scale not given: the % may be the effect or the level left
Please use MET for Activity under 20% and NOT MET for everything else, ties included.

Before answering, review these 3 worked examples.
Cc1ccc(COc2cc(OCc3ccc(C)cc3)cc(-c3cc(=O)c4ccc(OCC(O)CN(C(C)C)C(C)C)cc4o3)c2)cc1 (stereo not given) : MET
CC(C)(C)NCC(O)COc1ccc2c(=O)cc(-c3ccc(OCc4ccccc4)c(OCc4ccccc4)c3)oc2c1 (stereo not given) : MET
CC(C)NCC(O)COc1ccc2c(=O)cc(-c3cc(OCc4ccccc4)cc(OCc4ccccc4)c3)oc2c1 (stereo not given) : MET

I wonder whether CC(C)NCC(O)COc1ccc2c(=O)cc(-c3cc(O)cc(O)c3)oc2c1 (racemic) has Activity below 20%. Can you tell?
NOT MET

Determine whether this molecule shows Activity lower than 20% (ties excluded): COc1cc(OC)cc(-c2cc(=O)c3ccc(OCC(O)CNC(C)C)cc3o2)c1 (stereo not given)
NOT MET

====

tested on: Rattus norvegicus; assay: Antihyperlipidemic activity in Triton-induced dyslipidemic Wistar rat model assessed as reduction in triglyceride level at 100 mg/kg, po; assay type: functional; design: scale not given: the % may be the effect or the level left
measured-endpoint: Activity (%)
Write the value in % as a bare number.

CC(C)NCC(O)COc1ccc2c(=O)cc(-c3ccc(OCc4ccccc4)c(OCc4ccccc4)c3)oc2c1 (configuration not stated) : 14
COc1cc(OC)cc(-c2cc(=O)c3ccc(OCC(O)CNC(C)(C)C)cc3o2)c1 (configuration not stated) : 17
CC(C)NCC(O)COc1ccc2c(=O)cc(-c3cc(OCc4cc(Cl)cc(Cl)c4)cc(OCc4cc(Cl)cc(Cl)c4)c3)oc2c1 (configuration not stated) : 26
CC(C)(C)NCC(O)COc1ccc2c(=O)cc(-c3ccc(O)c(O)c3)oc2c1 (configuration not stated) : 25
CC(C)(C)NCC(O)COc1ccc2oc(-c3ccc(OCc4ccccc4)c(OCc4ccccc4)c3)cc(=O)c2c1 (configuration not stated) : 17

Form: compound = Cc1ccccc1COc1cc(OCc2ccccc2C)cc(-c2cc(=O)c3ccc(OCC(O)CNC(C)(C)C)cc3o2)c1 (configuration not stated) ; Activity = 28.2

Activity in this record for COc1cc(OC)cc(-c2cc(=O)c3ccc(OCC(O)CN4CCN(c5ccccc5)CC4)cc3o2)c1 (configuration not stated) : 17.3

COc1ccc(-c2cc(=O)c3ccc(OCC(O)CN4CCN(c5ccccc5)CC4)cc3o2)cc1OC (configuration not stated) has a reported Activity of 19

Input Cc1ccc(COc2cc(OCc3ccc(C)cc3)cc(-c3cc(=O)c4ccc(OCC(O)CNCc5ccccc5)cc4o3)c2)cc1 (configuration not stated) . Output Activity: 27.2

According to the records, this compound CC(C)OC(=O)C(C)(C)Oc1ccc(C(=O)c2ccc(Cl)cc2)cc1 [FENOFIBRATE] displays Activity of 32.9

Memo: CC(C)(C)NCC(O)COc1ccc2c(=O)cc(-c3cc(O)cc(O)c3)oc2c1 (configuration not stated) , reported Activity: 16

====

MRT values for the compounds below.
assay: Mean residence time in Sprague-Dawley rat at 2.5 mg/kg, iv by LC-MS/MS method; format: ADME, organism-based; parameters: dose 2.5 mg/kg, route intravenous; conditions: in vivo

CC(C)(C)NC[C@H](O)COc1ccc2c(=O)cc(-c3cc(OCc4ccccc4)cc(OCc4ccccc4)c3)oc2c1 : 13.5 h

Attention now turns to another entry.
MRT measured on "CC(C)NC[C@H](O)COc1ccc2c(=O)cc(-c3cc(O)cc(O)c3)oc2c1" = 4.9 h

====

assay: Plasma clearance in Sprague-Dawley rat at 2.5 mg/kg, iv by LC-MS/MS method; assay type: ADME, organism-based; set-up: dose 2.5 mg/kg, route intravenous
measured-endpoint: clearance
A complete answer gives the number and then names the unit.

So for "CC(C)(C)NC[C@H](O)COc1ccc2c(=O)cc(-c3cc(OCc4ccccc4)cc(OCc4ccccc4)c3)oc2c1" , the logged clearance turned out to be 62 mL/min/kg

response.value for "CC(C)NC[C@H](O)COc1ccc2c(=O)cc(-c3cc(O)cc(O)c3)oc2c1" (field: clearance) = 55 mL/min/kg

====

assay: Mean residence time in Sprague-Dawley rat at 40 mg/kg, po by LC-MS/MS method; type: ADME, organism-based; design: dose 40 mg/kg, route oral; conditions: in vivo
measured-endpoint: MRT (h)
Provide only the numeric value, understood in h.

Memo: CC(C)(C)NCC(O)COc1ccc2c(=O)cc(-c3cc(OCc4ccccc4)cc(OCc4ccccc4)c3)oc2c1 (racemic) , reported MRT: 43.2

====

assay: Cmax in Sprague-Dawley rat at 40 mg/kg, po by LC-MS/MS method; type: ADME, organism-based; parameters: dose 40 mg/kg, route oral; conditions: in vivo
measured-endpoint: Cmax (ng/mL)
Your answer should be a plain number; it is taken to be in ng/mL.

// sample CC(C)(C)NCC(O)COc1ccc2c(=O)cc(-c3cc(OCc4ccccc4)cc(OCc4ccccc4)c3)oc2c1 (racemic) , its Cmax was 60.9

====

tested on: Mus musculus; test: Antidyslipidemic activity in diabetic C57BL/KsJ db/db mouse model assessed as reduction in plasma cholesterol level at 25 mg/kg, po qd for 10 days; type: functional; design: scale not given: the % may be the effect or the level left
Some molecules, each annotated with its measured Activity.
Note: unit % is implicit; provide only the numeric part.

CC(C)NC[C@H](O)COc1ccc2c(=O)cc(-c3cc(O)cc(O)c3)oc2c1 : 27

The reported value for "CC(C)(C)NC[C@@H](O)COc1ccc2c(=O)cc(-c3cc(OCc4ccccc4)cc(OCc4ccccc4)c3)oc2c1" in terms of Activity is 15.9

For record "CC(C)NC[C@@H](O)COc1ccc2c(=O)cc(-c3cc(O)cc(O)c3)oc2c1" the listed Activity is 11.2

====

Items are presented alongside their recorded Activity.
test system: Rattus norvegicus; assay: Antihyperlipidemic activity in Triton-induced dyslipidemic Wistar rat model assessed as reduction in phospholipid level at 100 mg/kg, po; type: functional; design: scale not given: the % may be the effect or the level left

The examples below pair each entry with its known result.
Cc1ccc(COc2cc(OCc3ccc(C)cc3)cc(-c3cc(=O)c4ccc(OCC(O)CNC(C)C)cc4o3)c2)cc1 (centres undefined) : 26.5%
Cc1ccccc1COc1cc(OCc2ccccc2C)cc(-c2cc(=O)c3ccc(OCC(O)CNC(C)C)cc3o2)c1 (centres undefined) : 24.1%
COc1cc(-c2cc(=O)c3ccc(OCC(O)CNC(C)(C)C)cc3o2)cc(OC)c1OC (centres undefined) : 26%

Item: O=c1cc(-c2cc(OCc3ccccc3)cc(OCc3ccccc3)c2)oc2cc(OCC(O)CN3CCN(c4ccccc4)CC3)ccc12 (centres undefined) | Activity: 21%
